protocol: Stability in mouse plasma assessed as parent compound remaining measured after 15 mins post dose
Assay type: ADME, cell-free
cond: read-out: Stability
recorded.metric: remaining at 0.25 h (%)
Write the value in % as a bare number.

# input Which remaining at 0.25 h reading was recorded for the molecule `COc1cnc(NC(=O)c2ccc(CN3C(=O)c4ccc(Cl)cc4NC(=O)[C@H]3Cc3ccccn3)cc2)nc1` ?
# output 50

---

study.target: Toxin B (Clostridioides difficile, UniProt P18177)
Sequence (P18177 whole entry, the tested form may be a part): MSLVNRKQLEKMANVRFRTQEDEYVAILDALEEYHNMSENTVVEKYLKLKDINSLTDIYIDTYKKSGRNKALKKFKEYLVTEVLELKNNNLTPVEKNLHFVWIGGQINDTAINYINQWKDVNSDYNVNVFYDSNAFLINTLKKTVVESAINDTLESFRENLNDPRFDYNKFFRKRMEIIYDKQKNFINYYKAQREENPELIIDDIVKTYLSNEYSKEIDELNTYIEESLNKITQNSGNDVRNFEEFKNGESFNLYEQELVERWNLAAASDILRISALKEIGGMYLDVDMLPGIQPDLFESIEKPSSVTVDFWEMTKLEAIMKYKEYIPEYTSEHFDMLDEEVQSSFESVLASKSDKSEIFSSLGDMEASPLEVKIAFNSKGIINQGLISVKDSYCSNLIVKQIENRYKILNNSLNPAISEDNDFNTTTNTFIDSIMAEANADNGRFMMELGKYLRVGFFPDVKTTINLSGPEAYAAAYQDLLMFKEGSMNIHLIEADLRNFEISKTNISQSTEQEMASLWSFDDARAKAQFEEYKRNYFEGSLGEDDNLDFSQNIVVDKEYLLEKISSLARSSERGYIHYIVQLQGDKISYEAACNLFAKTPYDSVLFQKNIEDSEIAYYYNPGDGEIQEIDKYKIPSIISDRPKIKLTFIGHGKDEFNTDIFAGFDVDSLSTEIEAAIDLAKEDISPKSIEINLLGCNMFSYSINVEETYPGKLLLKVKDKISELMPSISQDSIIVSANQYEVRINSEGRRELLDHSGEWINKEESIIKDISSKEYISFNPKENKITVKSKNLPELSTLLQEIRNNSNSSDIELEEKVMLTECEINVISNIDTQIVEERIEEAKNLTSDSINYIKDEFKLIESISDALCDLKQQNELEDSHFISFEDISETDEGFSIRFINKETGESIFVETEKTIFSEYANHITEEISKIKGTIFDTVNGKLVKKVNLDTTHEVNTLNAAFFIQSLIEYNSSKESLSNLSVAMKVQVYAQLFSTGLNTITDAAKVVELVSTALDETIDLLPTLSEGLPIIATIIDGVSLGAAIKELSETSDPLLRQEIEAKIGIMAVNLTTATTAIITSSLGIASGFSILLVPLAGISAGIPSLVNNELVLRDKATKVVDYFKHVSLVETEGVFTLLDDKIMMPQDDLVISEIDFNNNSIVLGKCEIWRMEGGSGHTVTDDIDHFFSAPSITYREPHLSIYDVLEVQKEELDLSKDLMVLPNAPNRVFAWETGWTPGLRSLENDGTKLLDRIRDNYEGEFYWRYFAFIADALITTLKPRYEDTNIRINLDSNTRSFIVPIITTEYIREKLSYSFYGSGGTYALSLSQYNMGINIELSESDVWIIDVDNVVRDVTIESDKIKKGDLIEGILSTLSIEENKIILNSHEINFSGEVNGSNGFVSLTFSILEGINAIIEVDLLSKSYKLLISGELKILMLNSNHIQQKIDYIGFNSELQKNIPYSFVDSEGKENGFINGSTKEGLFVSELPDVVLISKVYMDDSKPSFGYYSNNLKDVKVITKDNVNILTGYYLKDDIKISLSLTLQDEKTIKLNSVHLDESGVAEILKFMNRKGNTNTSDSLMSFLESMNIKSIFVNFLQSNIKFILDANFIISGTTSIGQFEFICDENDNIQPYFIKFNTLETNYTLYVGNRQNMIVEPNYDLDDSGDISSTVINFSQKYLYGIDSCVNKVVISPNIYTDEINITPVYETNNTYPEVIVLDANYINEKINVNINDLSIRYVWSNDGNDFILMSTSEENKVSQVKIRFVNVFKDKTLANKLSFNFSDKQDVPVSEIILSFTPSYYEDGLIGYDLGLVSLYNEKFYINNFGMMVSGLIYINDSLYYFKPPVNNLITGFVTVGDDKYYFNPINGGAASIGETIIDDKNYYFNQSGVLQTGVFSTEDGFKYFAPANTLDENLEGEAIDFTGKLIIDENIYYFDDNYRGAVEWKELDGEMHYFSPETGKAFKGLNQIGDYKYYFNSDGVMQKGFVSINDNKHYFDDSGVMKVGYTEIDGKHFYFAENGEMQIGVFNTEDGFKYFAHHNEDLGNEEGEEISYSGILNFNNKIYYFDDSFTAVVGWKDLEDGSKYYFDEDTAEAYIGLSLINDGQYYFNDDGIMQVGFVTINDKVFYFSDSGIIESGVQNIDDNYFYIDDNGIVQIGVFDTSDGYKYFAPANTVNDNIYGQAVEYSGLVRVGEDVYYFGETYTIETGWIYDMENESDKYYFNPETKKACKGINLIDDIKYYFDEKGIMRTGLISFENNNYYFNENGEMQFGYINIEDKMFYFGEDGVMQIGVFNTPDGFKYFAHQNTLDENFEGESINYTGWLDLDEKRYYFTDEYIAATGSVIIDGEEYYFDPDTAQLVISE
protocol: Inhibition of C-terminal 6-His tagged recombinant Clostridium difficile toxin B catalytic fragment (Met1 to Leu543 residues) assessed as reduction in glucosyltransferase domain UDP-glucose hydrolysis activity using UDP-glucose and ADP Alexa633 tracer incubated fore 3 hrs by fluorescence polarization assay
IC50 for assorted compounds
Write the value in µM as a bare number.

Examples with their reported IC50 follow.
>>> df
                                        mol  result_number
0  O=C(O)c1ccc(CN2C(=O)c3ccc(Cl)cc3NC(=O)[C@@H]2Cc2ccc(Cl)c(Cl)c2)cc1            2.1
1  Cc1ccc2c(c1)NC(=O)[C@@H](Cc1ccc(Cl)c(Cl)c1)N(Cc1ccc(C(=O)O)cc1)C2=O             12
2  O=C(O)c1ccc(CN2C(=O)c3ccc(Cl)cc3NC(=O)[C@H]2CC2CCCCC2)cc1             84
3  C[C@@H]1C(=O)Nc2cc(Cl)ccc2C(=O)N1Cc1ccc(C(=O)O)cc1             21
4  O=C(Nc1cnccn1)c1ccc(CN2C(=O)c3ccc(Cl)cc3NC(=O)[C@H]2Cc2cccnc2)cc1          0.078
5  COc1ccc(NC(=O)c2ccc(CN3C(=O)c4ccc(Cl)cc4NC(=O)[C@H]3Cc3ccccn3)cc2)nc1          0.003
6  O=C(O)c1ccc(CN2C(=O)c3ccc(Cl)cc3NC(=O)[C@H]2Cc2ccncc2)cc1             18

Next up:
# input What is its IC50 for Toxin B (Clostridioides difficile, UniProt P18177)? Entry: `O=C(O)c1ccc(CN2C(=O)c3ccccc3NC(=O)[C@H]2Cc2ccc(Cl)c(Cl)c2)cc1`
# output 2.1

---

protocol: Cmax in CD1 mouse at 1 mg/kg, iv
Format: ADME, organism-based
Set-up: dose 1 mg/kg, route intravenous
cond: in vivo
recorded.metric: Cmax (ng/mL)
Write the value in ng/mL as a bare number.

>>> print(df.to_string())
                                        mol  recorded_metric  result_number
0  Cc1ccc(NC(=O)c2ccc(CN3C(=O)c4ccc(Cl)cc4NC(=O)[C@H]3Cc3ccccn3)cc2)nc1             Cmax           1030

Next up:
# input Which Cmax reading was recorded for the compound `COc1cnc(NC(=O)c2ccc(CN3C(=O)c4ccc(Cl)cc4NC(=O)[C@H]3Cc3ccccn3)cc2)nc1` ?
# output 2

---

protocol: Clearance in CD1 mouse at 1 mg/kg, iv
Assay type: ADME, organism-based
cond: in vivo
recorded.metric: clearance

# input Which clearance reading was recorded for the molecule `Cc1ccc(NC(=O)c2ccc(CN3C(=O)c4ccc(Cl)cc4NC(=O)[C@H]3Cc3ccccn3)cc2)nc1` ?
# output 76 mL/min/kg

---

remaining at 0.25 h for assorted compounds
protocol: Stability in human liver microsomes assessed as parent compound remaining level incubated for 15 mins
Assay type: ADME, microsome
cond: read-out: Stability
Write the value in % as a bare number.

In [3]: df
Out[3]:
                                        mol  result_number
0  Cc1ccc(NC(=O)c2ccc(CN3C(=O)c4ccc(Cl)cc4NC(=O)[C@H]3Cc3ccccn3)cc2)nc1             63

# input Which remaining at 0.25 h reading was recorded for the compound `COc1ccc(NC(=O)c2ccc(CN3C(=O)c4ccc(Cl)cc4NC(=O)[C@H]3Cc3ccccn3)cc2)nc1` ?
# output 81

# input Another: `O=C(Nc1cnccn1)c1ccc(CN2C(=O)c3ccc(Cl)cc3NC(=O)[C@H]2Cc2cccnc2)cc1`
# output 92

# input Another: `COc1cnc(NC(=O)c2ccc(CN3C(=O)c4ccc(Cl)cc4NC(=O)[C@H]3Cc3ccccn3)cc2)nc1`
# output 90
